The measured values listed here are drawn from paper PMC10123561.

Experiment: Pharmacokinetics in healthy rhesus macaques after nasogastric administration
Conditions: rhesus monkey, plasma, po, 200 mg/kg, AUCtot, Monkey 1, healthy, 200 mg/kg nasogastric
Where a name gives a salt, the structure may show the parent alone.
quantity: AUC (µM·h)
Write the number in µM·h without appending the unit.

Query :: Query (compound): Cc1c(O)cccc1C(=O)N[C@@H](CSc1ccccc1)[C@H](O)CN1C[C@H]2CCCC[C@H]2C[C@H]1C(=O)NC(C)(C)C [nelfinavir, Nelfinavir Mesylate] ; field requested: AUC
Result :: 28.4

* * *

Test: Pharmacokinetics in healthy rhesus macaques after nasogastric administration
Conditions: rhesus monkey, plasma, po, 200 mg/kg, t1/2, Monkey 2, healthy, 200 mg/kg nasogastric
Structures can show the parent of a compound that is named as a salt.
quantity: half-life (h)
Give your result in h as a bare value.

Query :: Entry Cc1c(O)cccc1C(=O)N[C@@H](CSc1ccccc1)[C@H](O)CN1C[C@H]2CCCC[C@H]2C[C@H]1C(=O)NC(C)(C)C [nelfinavir, Nelfinavir Mesylate] has what half-life?
Result :: 6.92

* * *

Test: Pharmacokinetics in healthy rhesus macaques after nasogastric administration
Settings: rhesus monkey, plasma, po, 200 mg/kg, Cmax, Monkey 2, healthy, 200 mg/kg nasogastric
Counter-ions that a name gives are not always drawn.
quantity: Cmax
Quick note: unit goes after the number.

Query :: // query Cmax value for entry Cc1c(O)cccc1C(=O)N[C@@H](CSc1ccccc1)[C@H](O)CN1C[C@H]2CCCC[C@H]2C[C@H]1C(=O)NC(C)(C)C [nelfinavir, Nelfinavir Mesylate]
Result :: 1070 nM

* * *

Experiment: Pharmacokinetics in healthy rhesus macaques after nasogastric administration
Conditions: rhesus monkey, plasma, po, 200 mg/kg, t1/2, Monkey 1, healthy, 200 mg/kg nasogastric
Where a name gives a salt, the structure may show the parent alone.
quantity: half-life
Express the reported value numerically, then name its unit.

Query :: Please give the measured half-life for this compound: Cc1c(O)cccc1C(=O)N[C@@H](CSc1ccccc1)[C@H](O)CN1C[C@H]2CCCC[C@H]2C[C@H]1C(=O)NC(C)(C)C [nelfinavir, Nelfinavir Mesylate]
Result :: 4.46 h
